Where do the numbers come from? From patent US20230272099A1.

Known absorbance ratio of a selection of binders
target: T1, biotinylated Fc-fused monkey CD137 (monkey, biotin on the AviTag); test: ELISA, 1 mM ADP, 2.5 ug/mL; parameters: reference not given here
T1 construct: also called cyCD137-Fc-BAP
T1 sequence (chain, as listed by the source limits assumed): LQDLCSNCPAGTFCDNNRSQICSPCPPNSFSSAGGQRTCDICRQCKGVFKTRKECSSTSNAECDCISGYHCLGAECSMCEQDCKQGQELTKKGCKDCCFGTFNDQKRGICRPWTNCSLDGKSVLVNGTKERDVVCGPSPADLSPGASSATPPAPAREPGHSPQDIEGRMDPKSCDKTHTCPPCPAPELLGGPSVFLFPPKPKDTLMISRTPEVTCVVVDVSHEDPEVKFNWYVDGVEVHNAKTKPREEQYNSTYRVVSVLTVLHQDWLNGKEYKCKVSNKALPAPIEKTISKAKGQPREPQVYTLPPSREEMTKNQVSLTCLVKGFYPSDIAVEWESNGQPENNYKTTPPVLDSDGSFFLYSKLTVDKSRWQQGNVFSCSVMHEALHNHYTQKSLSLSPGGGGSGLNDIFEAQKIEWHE
measurementName: absorbance ratio

dBBAT037-P253 (antibody, human IgG1, lambda, V domains shown) VH: EVQLVESGGDLVKPGGGLRLSCAASGFTFSGYTMNWVRQAPGKGLEWVSSISSRSNYIDYADSVKGRFTISRDNAKNSLYLQMNSLRAEDTAVYYCARFGLKNSLNWVFDYWGQGTLVTVSS VL: QSALTQPPSASGSPGQTVTISCTGTSTDVGFYNYVSWYQQHPGKAPKLMIYETSKRPSGVPDRFSGSKSGNTASLTVSGLQAEDEADYFCSSYSGASILLFGGGTKLTVLG; 12.7
dBBAT091-P253 (antibody, human IgG1, lambda, V domains shown) VH: EVQLVESGGDLVKPGGGLRLSCAASGFTFSSYTMNWVRQAPGKGLEWVSSISSRSNYIDYADSVKGRFTISRDNAKNSLYLQMNSLRAEDTAVYYCARFGKKNDMNWVFDYWGQGTLVTVSS VL: QSALTQPPSASGSPGQTVTISCTGTSTDVGFYNYVSWYQQHPGKAPKLMIYEGSKRPSGVPDRFSGSKSGNTASLTVSGLQAEDEADYFCSSYEYTESVLFGGGTKLTVLG; 5.5
dBBAT015-P253 (antibody, human IgG1, lambda, V domains shown) VH: EVQLVESGGDLVKPGGGLRLSCAASGFTFSTYTMNWVRQAPGKGLEWVSSISSRSTYATYADSVKGRFTISRDNAKNSLYLQMNSLRAEDTAVYYCARYGLKNSLNWVFDYWGQGTLVTVSS VL: QSALTQPPSASGSPGQTVTISCTGTSTDVGFYNYVSWYQQHPGKAPKLMIYEVSKKPSGVPDRFSGSKSGNTASLTVSGLQAEDEADYFCSTYSYDESVAFGGGTKLTVLG; 32.4
dBBAT112-P253 (antibody, human IgG1, lambda, V domains shown) VH: EVQLVESGGDLVKPGGGLRLSCAASGFTFSTYTMNWVRQAPGKGLEWVSSISSRSNYKFYADSVKGRFTISRDNAKNSLYLQMNSLRAEDTAVYYCARFGVKNNMNWVFDYWGQGTLVTVSS VL: QSALTQPPSASGSPGQTVTISCTGTSSDVGFYNYVSWYQQHPGKAPKLMIYEVSKRPSGVPDRFSGSKSGNTASLTVSGLQAEDEADYFCSSYEYIESVLFGGGTKLTVLG; 8.1
dBBAT134-P253 (antibody, human IgG1, lambda, V domains shown) VH: EVQLVESGGDLVKPGGGLRLSCAASGFTFSSYTMNWVRQAPGKGLEWVSSISSRSNYADYADSVKGRFTISRDNAKNSLYLQMNSLRAEDTAVYYCARYGAKNEMNWVFDYWGQGTLVTVSS VL: QSALTQPPSASGSPGQTVTISCTGTSTDVGFYNYVSWYQQHPGKAPKLMIYEVSKRPSGVPDRFSGSKSGNTASLTVSGLQAEDEADYFCSSYTYDQQLMFGGGTKLTVLG; 16.8
dBBAT122-P253 (antibody, human IgG1, lambda, V domains shown) VH: EVQLVESGGDLVKPGGGLRLSCAASGFTFSTYTMNWVRQAPGKGLEWVSSISSRSNYKFYADSVKGRFTISRDNAKNSLYLQMNSLRAEDTAVYYCARFGGKNNMNWVFDYWGQGTLVTVSS VL: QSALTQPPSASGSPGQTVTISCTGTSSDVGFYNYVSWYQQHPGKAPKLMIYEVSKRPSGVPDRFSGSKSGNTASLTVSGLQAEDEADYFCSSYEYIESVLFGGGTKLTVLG; 16.7
